- Tested on: T-47D breast
- test.protocol: NCI tumour cell line growth inhibition, 48 h
test.readout: TGI (µM)
State just the number; it will be interpreted in µM.

Which TGI reading was recorded for the compound C(=C\c1cc[n+](CCc2ccccc2)cc1)/c1ccccc1 ?
71.7

---

Below, each of the compounds is paired with its reported TGI value.
- Tested on: NCI-H23 lung
- test.protocol: NCI tumour cell line growth inhibition, 48 h

// solved cases for TGI follow
In [3]: df
Out[3]:
                                   compound  observed_value
0       CN(Cc1cccc2ccsc12)/N=C\c1ccc(Cl)cc1        > 100 µM
1  C[C@H]1CCC/C=C/[C@@H]2C[C@H](OC(=O)CN(C)C)C[C@H]2[C@H](O)/C=C/C(=O)O1        0.909 µM
2  CCOC(=O)c1cn(-c2ccc([N+](=O)[O-])cc2)c(=S)n2c1nc1ccccc12        > 100 µM
3                 CO/C(N)=C(\C#N)N=Cc1ccsc1        > 100 µM

# query: TGI of entry C/C(=C\c1ccccc1)C(O)C(=O)c1nc2ccc(Cl)cc2[nH]c1=O (stereo not given)
> 100 µM

And what about the compound CC(=O)Nc1nc2c(=O)c3ccccc3sc2s1 ?
> 100 µM

Now try Nc1cc(C(F)(F)F)c(-c2nc(N3CCOCC3)nc(N3CCOCC3)n2)cn1 .
> 100 µM

// repeat for CCOc1ccc(NC(=O)C(=O)C(/C(=N/N)C(=O)OC)c2nc3ccc([N+](=O)[O-])cc3[nH]c2=O)cc1 (stereo not given) and report
> 100 µM

Same again, this time with COc1cc2c(cc1OCCN1CCN(CCN3C(=O)c4cccc5cccc(c45)C3=O)CC1)N=C[C@@H]1CCCN1C2=O
25.6 µM

// same read-out, input: O=[N+]([O-])c1ccc(/C=C(/c2ccc([N+](=O)[O-])o2)S(=O)(=O)c2ccccc2)cc1
> 100 µM

---

- Test system: U251 CNS
- test.protocol: NCI tumour cell line growth inhibition, 48 h
test.readout: TGI

compound	observed.value
Cc1cccc(C)c1NC(=O)C(=O)CC(=O)c1sc(Nc2c(C)cccc2C)nc1C	> 100 µM
CNS(=O)(=O)Nc1nccc(Cc2c(C)c3ccc(Oc4ncccn4)cc3oc2=O)c1F	> 100 µM
CCCCCC(=O)OC[n+]1cccc(-c2c(COC(=O)NC(C)C)c(COC(=O)NC(C)C)c3n2CCC3)c1	> 100 µM

TGI lookup needed for NC(CCC(=O)O)C(=O)NC(Cc1ccc(N(CCCl)CCCl)cc1)C(=O)O (stereo not drawn) , thanks.
> 100 µM

Next entry: Cc1nc2ccc(N=Nc3c(C)noc3C)cc2[nH]1
> 100 µM

Record: O=C1Nc2ccc(Cl)cc2/C1=N/c1nc(-c2ccc(Cl)cc2)cs1
4.65 µM

What do we get for CC1OC(OC2C(OC(=O)[C@]34CCC(C)(C)C[C@H]3C3=CC[C@@H]5[C@@]6(C)CC[C@H](OC7OC(CO)C(O)C(O)C7OC7OC(CO)C(O)C(O)C7O)C(C)(C)[C@@H]6CC[C@@]5(C)[C@]3(C)CC4)OCC(O)C2O)C(O)C(O)C1OC1OCC(O)C(O)C1O (stereo partly drawn) ?
29.2 µM

Moving on to the next compound: Nc1ccccc1C(=O)/C=C/c1ccccc1O
> 100 µM
